Just for reference, patent US9809573B2 is where these values come from.

Recorded IC50 by entry
System under test: GSK3β (Homo sapiens, UniProt P49841)
Sequence (P49841 whole entry, species assumed): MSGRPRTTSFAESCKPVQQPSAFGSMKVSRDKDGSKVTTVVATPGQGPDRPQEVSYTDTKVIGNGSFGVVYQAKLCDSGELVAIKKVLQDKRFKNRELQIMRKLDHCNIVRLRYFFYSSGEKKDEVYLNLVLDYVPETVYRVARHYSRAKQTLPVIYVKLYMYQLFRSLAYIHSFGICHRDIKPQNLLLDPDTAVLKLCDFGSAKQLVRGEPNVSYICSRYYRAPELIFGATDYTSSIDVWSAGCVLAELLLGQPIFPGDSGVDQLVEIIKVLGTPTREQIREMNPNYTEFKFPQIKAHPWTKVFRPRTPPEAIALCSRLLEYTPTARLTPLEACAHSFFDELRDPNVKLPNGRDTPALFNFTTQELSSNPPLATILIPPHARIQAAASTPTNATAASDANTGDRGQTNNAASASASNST
Assay procedure: GSK3β kinase assay (Caliper LabChip3000, fluoresceinated peptide substrate)
Type: biochemical
Settings: read-out: GSK3β/α (nM): GSK3β IC50; first value of the cell; 250 pM enzyme, 20 uM ATP, 20 hours at room temperature
The reply should be a number in nM, with the unit left off.

molecule="O=C(Nc1cnccc1-c1ccc(Cl)cc1)c1ccnc(NC(=O)C2CC(F)C2)c1 (single isomer, unassigned) [Example 222]" measured_value=1.7

Shifting focus to the molecule that follows.
GET /value?item= O=C(Nc1cnccc1-c1ccc(Cl)cc1)c1ccnc(NC(=O)C2CC(F)C2)c1 (single isomer, unassigned) [Example 223] &field=IC50 returns 6.9
